Taken from patent US20080009511A1.

System: KB oral cancer cells
test-details: Cell viability assay (trypan blue dye exclusion), viable cells counted at day 6
Type: cell-based, human
experimental-parameters: 10 micromoles, growth vs untreated
Each entry below lists one item and its recorded % inhibiton value.

# input Reported % inhibiton for CN(C)CC1CCn2c(c(C3=C(c4cn(C)c5ccccc45)C(=O)NC3=O)c3ccccc32)C1.Cl (stereo not drawn) [Ro31-0432] : what is it?
# output 44%

Query compound follows.
# input Which % inhibiton is reported for this compound? CN(C)CCCn1cc(C2=C(c3c[nH]c4ccccc34)C(=O)NC2=O)c2ccccc21 [Gö6850]
# output 55%

----------
Test system: KB oral cancer cells
test-details: Cell viability assay (trypan blue dye exclusion), viable cells counted at day 6
Assay type: cell-based, human
experimental-parameters: 10 micromoles, about 4×10^4 cells seeded, untreated 3.8 ± 0.4
Each entry below carries its reported Treated (cell number × 10^5).

Solved entries (count: 2):
# input I would be grateful if you could share the reported Treated (cell number × 10^5) for CN(C)CC1CCn2c(c(C3=C(c4cn(C)c5ccccc45)C(=O)NC3=O)c3ccccc32)C1.Cl (stereo not drawn) .
# output 2.1 × 10^5

# input Record request: Treated (cell number × 10^5) value, item `Cn1cc(C2=C(c3cn(CCCSC(=N)N)c4ccccc34)C(=O)NC2=O)c2ccccc21`
# output 0 × 10^5

---
# input I'd like to know its Treated (cell number × 10^5). The compound in question is Cl.Cn1cc(C2=C(c3c4n(c5ccccc35)CCC(CN)C4)C(=O)NC2=O)c2ccccc21 (stereo not drawn)
# output 0 × 10^5

# input Which measured Treated (cell number × 10^5) value corresponds to `CN(C)CCCn1cc(C2=C(c3c[nH]c4ccccc34)C(=O)NC2=O)c2ccccc21` ?
# output 1.7 × 10^5

# input Reported Treated (cell number × 10^5), compound `N#CCCn1c2ccccc2c2c3c(c4c5ccccc5[nH]c4c21)C(=O)NC3` : ____
# output 0 × 10^5

# input Recorded Treated (cell number × 10^5) for `Cn1cc(C2=C(c3cn(CCCN)c4ccccc34)C(=O)NC2=O)c2ccccc21` , please?
# output 0 × 10^5
